# viability at 48 h, 10 µM per record follows
test: Antiproliferative activity against human GM06114 cells assessed as cell growth at 10 uM incubated for 48 hrs by MTT assay relative to control; assay type: toxicity, cell-based; details: read-out: Activity
endpoint: viability at 48 h, 10 µM (%)

* CCCC(O)Cn1nc(Nc2cccc(Cl)c2)c(C(=O)OCC)c1N (stereo not drawn) | 82
* CCOC(=O)c1c(Nc2cccc3ccccc23)nn(CC(O)c2ccccc2)c1N (stereo not drawn) | 81
* CCCC(O)Cn1nc(Nc2cccc3ccccc23)c(C(=O)OCC)c1N (stereo not drawn) | 104

* * *

growth at 10 µM values for the compounds below.
test system: HepG2; assay: Antiproliferative activity against human HepG2 cells assessed as cell growth at 10 uM incubated for 48 hrs by MTT assay relative to control; type: functional; conditions: read-out: Activity
endpoint: growth at 10 µM (%)

- CCOC(=O)c1c(Nc2ccc(OC)cc2)nn(CC(O)c2ccccc2)c1N (stereo unspecified): 115
- CCCC(O)Cn1nc(Nc2ccccc2)c(C(=O)OCC)c1N (stereo unspecified): 106
- CCOC(=O)c1c(Nc2cccc(C(F)(F)F)c2)nn(CC(O)c2ccccc2)c1N (stereo unspecified): 131
- CCCC(O)Cn1nc(Nc2ccc(Cl)c(Cl)c2)c(C(=O)OCC)c1N (stereo unspecified): 116
- CCCC(O)Cn1nc(Nc2cccc(C(F)(F)F)c2)c(C(=O)OCC)c1N (stereo unspecified): 69
- CCCC(O)Cn1nc(Nc2cccc(Cl)c2)c(C(=O)OCC)c1N (stereo unspecified): 90
- CCOC(=O)c1c(Nc2ccccc2Cl)nn(CC(O)c2ccccc2)c1N (stereo unspecified): 111
- CCCC(O)Cn1nc(Nc2ccc(OC)cc2)c(C(=O)OCC)c1N (stereo unspecified): 110
- CCCC(O)Cn1nc(Nc2ccc(C)cc2)c(C(=O)OCC)c1N (stereo unspecified): 119
- CCOC(=O)c1c(Nc2ccc(Cl)c(Cl)c2)nn(CC(O)c2ccccc2)c1N (stereo unspecified): 100
- CCOC(=O)c1c(Nc2cccc(Cl)c2)nn(CC(O)c2ccccc2)c1N (stereo unspecified): 113

The reported measurements were obtained from ChEMBL document CHEMBL5608214.
